# Tested System: T1, Recombinant purified HER2 receptor composed of the ectodomain of HER2 fused to the Fc of human IgG (human, UniProt P04626 23-652, limits assumed)
# T1 construct: extracellular domain; Provided by Dr. Che Law, Xcyte Therapeutics; amine-coupled to the Biacore chip (3500 RU); also called immobilized HER2; p185; not shown: Fc of human IgG
# Assay Notes: Biacore SPR, HER2 ectodomain-Fc immobilized, peptide as analyte
Positions of bridges follow the written chain, without caps; N, C: chain ends. No end group written: not given here.
Measured Endpoint: koff (s⁻¹)
# number only, unit s⁻¹ dropped from output

FCDGFYACYMDV-OH (disulfide 2-8 (inferred), also called peptide 2) [AHNP analogue 2, FCDGFYACYMDV-OH (cyclic)] = 0.000643
FCDGFYACYKDV-OH (disulfide 2-8 (inferred), Met of peptide 2 replaced by Lys; also called peptide 6) [AHNP analogue 6, FCDGFYACYKDV-OH] = 0.00125
FCDGFYACYMDV-NH2 (disulfide 2-8, Designed from the CDR-H3 loop of rhumAb 4D5; also called anti-HER2 peptide) [AHNP (anti-HER2/neu peptide mimetic), peptide 1, FCDGFYACYMDV-NH2] = 0.000453
GFCDGFYACYMDV-OH (disulfide 3-9 (inferred), Gly placed at the N-terminus before Phe1; also called peptide 7) [AHNP analogue 7, GFCDGFYACYMDV-OH] = 0.000808
FCDGFYACYMDVK-NH2 (disulfide 2-8 (inferred), Lys added as C-terminal residue; also called peptide 5) [AHNP analogue 5, FCDGFYACYMDVK-NH2] = 0.000512

Documented koff of YCDGFYACYMDV-NH2 (disulfide 2-8 (inferred), N-terminal Phe of AHNP replaced with Tyr; also called peptide 3) [AHNP analogue 3, YCDGFYACYMDV-NH2] : 0.000294

Documented koff of FCGDGFYACYMDV-OH (disulfide 2-9 (inferred), First AHNP analogue designed; has one more turn Gly than peptide 2; also called peptide 8) [AHNP analogue 8, FCGDGFYACYMDV-OH] : 0.000701

Documented koff of FCDGFYACYMDV-OH (cysteine pairing not given here, also called peptide 9; linear analogue 9) [AHNP analogue 9, FCDGFYACYMDV-OH (linear, not cyclized)] : 0.00106
